Biological target: T1, ECF31_34
T1 chain: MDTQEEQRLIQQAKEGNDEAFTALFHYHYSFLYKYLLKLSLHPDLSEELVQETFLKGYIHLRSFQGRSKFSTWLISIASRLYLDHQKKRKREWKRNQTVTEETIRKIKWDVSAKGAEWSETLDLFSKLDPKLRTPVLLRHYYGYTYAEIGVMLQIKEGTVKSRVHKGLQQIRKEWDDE
READOUT: fold repression
Answer field: number only, no words.

-- ask Item under review: AS33_375 (protein) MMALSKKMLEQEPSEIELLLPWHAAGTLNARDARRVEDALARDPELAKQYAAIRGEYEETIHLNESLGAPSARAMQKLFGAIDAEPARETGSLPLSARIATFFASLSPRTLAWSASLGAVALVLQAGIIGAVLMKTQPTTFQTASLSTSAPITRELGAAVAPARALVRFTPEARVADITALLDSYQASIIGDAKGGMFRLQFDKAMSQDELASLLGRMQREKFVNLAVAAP . Reported fold repression?
-- reply 9.28

-- ask Item under review: AS20_992 (protein) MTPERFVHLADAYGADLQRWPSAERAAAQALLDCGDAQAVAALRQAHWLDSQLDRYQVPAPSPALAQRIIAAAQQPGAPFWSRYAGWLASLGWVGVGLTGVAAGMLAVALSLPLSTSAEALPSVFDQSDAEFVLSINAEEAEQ . Reported fold repression?
-- reply 1.96

-- ask Item under review: AS02_915 (protein) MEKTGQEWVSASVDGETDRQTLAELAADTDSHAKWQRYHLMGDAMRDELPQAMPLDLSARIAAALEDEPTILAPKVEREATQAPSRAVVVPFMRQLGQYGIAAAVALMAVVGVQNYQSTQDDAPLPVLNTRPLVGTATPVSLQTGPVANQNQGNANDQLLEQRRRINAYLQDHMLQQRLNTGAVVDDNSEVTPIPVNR . Reported fold repression?
-- reply 3.89

-- ask Item under review: AS11_987 (protein) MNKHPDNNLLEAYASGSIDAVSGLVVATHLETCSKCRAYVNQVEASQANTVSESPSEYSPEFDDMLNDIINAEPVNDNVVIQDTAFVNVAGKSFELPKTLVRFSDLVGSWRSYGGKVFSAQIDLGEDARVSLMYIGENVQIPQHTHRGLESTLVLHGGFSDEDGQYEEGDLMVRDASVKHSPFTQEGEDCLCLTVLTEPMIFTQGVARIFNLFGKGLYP . Reported fold repression?
-- reply 2.53

-- ask Item under review: AS14_1324 (protein) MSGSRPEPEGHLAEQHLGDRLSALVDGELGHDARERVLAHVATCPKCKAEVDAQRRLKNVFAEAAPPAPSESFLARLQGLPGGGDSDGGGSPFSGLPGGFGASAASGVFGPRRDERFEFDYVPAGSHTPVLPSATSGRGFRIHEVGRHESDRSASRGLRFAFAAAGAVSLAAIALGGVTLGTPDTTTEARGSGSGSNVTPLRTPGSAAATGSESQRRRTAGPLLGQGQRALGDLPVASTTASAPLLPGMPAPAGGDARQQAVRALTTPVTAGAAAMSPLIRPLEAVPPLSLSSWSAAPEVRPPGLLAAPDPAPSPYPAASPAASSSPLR . Reported fold repression?
-- reply 5.28

// data source = paper PMC3817407
